Data provenance is patent US11498930B2.

Please respond with reported IC50 for every item in the list.
target: SHP2^E76A protein (Homo sapiens (Human), UniProt Q06124, E76A); test: SHP2 enzyme activity inhibition experiment; type: biochemical; details: Table 4; read-out: SHP2 enzyme activity IC50
Sequence (Q06124 whole entry E76A): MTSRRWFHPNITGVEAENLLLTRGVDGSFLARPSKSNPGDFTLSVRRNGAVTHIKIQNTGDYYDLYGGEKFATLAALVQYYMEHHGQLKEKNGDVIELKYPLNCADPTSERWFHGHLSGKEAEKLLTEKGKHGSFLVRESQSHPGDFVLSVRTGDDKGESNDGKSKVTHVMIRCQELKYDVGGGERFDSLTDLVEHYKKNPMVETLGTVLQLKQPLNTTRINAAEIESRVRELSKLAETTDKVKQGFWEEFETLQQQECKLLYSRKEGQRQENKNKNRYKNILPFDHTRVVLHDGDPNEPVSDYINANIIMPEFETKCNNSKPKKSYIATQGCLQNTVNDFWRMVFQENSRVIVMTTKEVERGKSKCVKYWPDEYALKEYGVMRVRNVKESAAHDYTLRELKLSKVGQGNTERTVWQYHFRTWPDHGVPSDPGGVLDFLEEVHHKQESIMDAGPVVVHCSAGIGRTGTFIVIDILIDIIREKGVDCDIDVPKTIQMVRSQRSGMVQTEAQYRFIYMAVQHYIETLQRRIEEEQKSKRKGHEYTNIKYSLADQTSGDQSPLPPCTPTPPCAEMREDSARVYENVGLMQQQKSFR
Supply the numeric figure in µM, leaving out any unit text.

What reported IC50 corresponds to `Cc1nc(N)cc(Sc2cnc(N3CCC4(CC3)COC[C@H]4N)n3ccnc23)c1Cl` on SHP2^E76A protein (Homo sapiens (Human), UniProt Q06124, E76A)? 0.034

Lookup: IC50 / SHP2^E76A protein (Homo sapiens (Human), UniProt Q06124, E76A) / CC1C[C@@H](N)C2(CCN(c3ncc(Sc4ccnc(N)c4Cl)c4nccn34)CC2)C1 (stereo partly shown) 0.032

Lookup: IC50 / SHP2^E76A protein (Homo sapiens (Human), UniProt Q06124, E76A) / `C[C@@H]1OCC2(CCN(c3ncc(Sc4ccnc(N)c4Cl)c4nccn34)CC2)[C@@H]1N` 0.02

Please state recorded IC50 (tested on SHP2^E76A protein (Homo sapiens (Human), UniProt Q06124, E76A)) of `C[C@@H]1OCC2(CCN(c3ncc(Sc4ccnc(Cl)c4Cl)c4nccn34)CC2)[C@@H]1N` 0.005

====

tested on: phosphorylation level of intracellular protein kinase (ERK) in MOLM13 cells; experiment: Phosphorylated protein kinase (p-ERK) cell experiment (AlphaLISA); type: cell-based; settings: Homo sapiens, MOLM-13, read-out: p-ERK IC50
parameter measured: IC50 (µM)
Report as a plain number; the unit µM is understood.

Quick one: IC50 of CC1(N)CCN(c2cnc(-c3cccc(Cl)c3Cl)c(N)n2)CC1 [SHP099, reference compound] ? 2.07

====

biological target: SHP2^E76A protein (Homo sapiens (Human), UniProt Q06124, E76A); experiment: SHP2 enzyme activity inhibition experiment; assay type: biochemical; settings: SHP2 enzyme activity, Tables 1.1 and 1.2; read-out: IC50
parameter measured: IC50

Any idea what its IC50 is? The compound is `N[C@@H]1CCOC12CCN(c1ncc(Sc3cccc(Cl)c3Cl)c3nccn13)CC2` 100 to 1000 nM

Which IC50 is listed for `COc1ccccc1Sc1cnc(N2CCC3(CCC[C@H]3N)CC2)n2ncnc12` ? 100 to 1000 nM

Return reported IC50; argument: `C[C@@H]1OCC2(CCN(c3ncc(Sc4cc(N)nc(Cl)c4Cl)c4nccn34)CC2)[C@@H]1N` < 100 nM

Query (compound): `Nc1cc(Sc2cnc(N3CCC4(CCC[C@H]4N)CC3)n3ccnc23)c(Cl)c(Cl)n1` ; field requested: IC50 < 100 nM

Form field: reported IC50 of `N[C@@H]1CCCC12CCN(c1ncc(Sc3cccnc3C(F)(F)F)c3nccn13)CC2` < 100 nM

Endpoint output: IC50 of NC1CCCN(c2ncc(Sc3cccc(Cl)c3Cl)c3ncnn23)CC1 (stereo not drawn) . Value? 100 to 1000 nM

Recorded IC50 for `C[C@@H]1OCC2(CCN(c3ncc(Sc4cc(N)ncc4Cl)c4nncn34)CC2)[C@@H]1N` , please? < 100 nM

Tell me the measured IC50 of `NCC1(c2ccccc2)CCN(c2ncc(Sc3cccc(Cl)c3Cl)c3nncn23)CC1` , please. < 100 nM

GET /values?readout=IC50&item= `Nc1cc(Sc2cnc(N3CCC4(CC3)COC[C@H]4N)n3cnnc23)c(Cl)c(Cl)n1` < 100 nM

====

Would you mind telling me the reported pIC50 of each entry?
biological target: SHP2^E76A protein (Homo sapiens (Human), UniProt Q06124, E76A); assay: SHP2 enzyme activity inhibition experiment; format: biochemical; conditions: SHP2 enzyme activity, Tables 1.1 and 1.2; read-out: IC50
pIC50: −log10 of the molar value.

Any idea what its pIC50 is? The compound is CC1(N)COCC12CCN(c1ncc(Sc3cccc(Cl)c3Cl)c3nncn13)CC2 (stereo not shown) 5.00 to 6.00

Suppose we examine the compound `N[C@H]1CCCC12CCN(c1ncc(Sc3cccc(Cl)c3Cl)c3nncn13)CC2` ; what pIC50 value has been reported? 5.00 to 6.00

# get_value(readout='pIC50', item= `C[C@H]1OCC2(CCN(c3ncc(Sc4cccc(Cl)c4Cl)c4nncn34)CC2)[C@H]1N` ) 5.00 to 6.00

Would you mind telling me what pIC50 value was observed for `Nc1cc(Sc2cnc(N3CCC4(CC3)CC(F)(F)C[C@H]4N)n3ccnc23)c(Cl)c(Cl)n1` ? > 7.00

# pIC50 lookup, item `N[C@@H]1COCC12CCN(c1ncc(Sc3cccc(Cl)c3Cl)c3ncnn13)CC2` 6.00 to 7.00

Item under review: `Cc1nc(N)cc(Sc2cnc(N3CCC4(CC3)COC[C@H]4N)n3ccnc23)c1Cl` . Reported pIC50? > 7.00

Which pIC50 value is on record for `N[C@@H]1CCCC12CCN(c1ncc(Sc3c(Cl)cccc3Cl)c3nncn13)CC2` ? 5.00 to 6.00

Quick check: pIC50 of `N[C@@H]1CCCC12CCN(c1ncc(Sc3cccc4ccccc34)c3nncn13)CC2` ? > 7.00

// query pIC50 value for entry `Nc1ccc(Sc2cnc(N3CCC4(CCC[C@H]4N)CC3)n3ccnc23)c(Cl)n1` > 7.00

Would you kindly share the measured pIC50 for `CC1(N)CCN(c2ncc(Sc3cccc(Cl)c3Cl)c3nncn23)CC1` ? 6.00 to 7.00

Requested field: pIC50. Item: `N[C@@H]1CCCC12CCN(c1ncc(Sc3ccnc(Cl)n3)c3nccn13)CC2` > 7.00

Can you look up the measured pIC50 of `CC(C)c1ccccc1Sc1cnc(N2CCC3(CCC[C@H]3N)CC2)n2ccnc12` for me? 6.00 to 7.00

Field request: pIC50 | item: `N[C@@H]1COCC12CCN(c1ncc(Sc3cccc(Cl)c3Cl)c3nccn13)CC2` > 7.00

Could you share which pIC50 value was measured for CC1C[C@@H](N)C2(CCN(c3ncc(Sc4ccnc(Cl)c4Cl)c4nncn34)CC2)C1 (stereo partly shown) ? > 7.00

Endpoint output: pIC50 of `C[C@@H]1OCC2(CCN(c3ncc(Sc4ccnc(Cl)c4Cl)c4nccn34)CC2)[C@@H]1N` . Value? > 7.00

Name the recorded pIC50 for CC1C[C@@H](N)C2(CCN(c3ncc(Sc4ccnc(N)c4Cl)c4nccn34)CC2)C1 (stereo partly shown) . > 7.00

What value of pIC50 has been reported for the following compound? CC1CCC2(CCN(c3ncc(Sc4cccc(Cl)c4Cl)c4nccn34)CC2)[C@@H]1N (stereo partly shown) > 7.00

Field request: pIC50 | item: `N[C@@H]1CCCC12CCN(c1ncc(Sc3ccnnc3Cl)c3nccn13)CC2` 6.00 to 7.00

Name the recorded pIC50 for `CC1(CN)CCN(c2ncc(Sc3cccc(Cl)c3Cl)c3nccn23)CC1` . > 7.00

Which measured pIC50 value corresponds to `N[C@@H]1CCCC12CCN(c1ncc(Sc3ccnc(F)c3Cl)c3nccn13)CC2` ? > 7.00

Any idea what its pIC50 is? The compound is CC1C[C@@H](N)C2(CCN(c3ncc(Sc4cc(N)nc(Cl)c4Cl)c4nncn34)CC2)C1 (stereo partly shown) > 7.00

For the compound `N[C@@H]1CCCC12CCN(c1ncc(-c3cccc(Cl)c3Cl)c3nncn13)CC2` , what pIC50 is on record? 5.00 to 6.00

// lookup pIC50 for `CC1(N)CCN(c2ncc(-c3cccc(Cl)c3Cl)c3nncn23)CC1` 5.00 to 6.00

Return reported pIC50; argument: `CC1(N)CCN(c2ncc(Sc3cccc(Cl)c3Cl)c3nccn23)CC1` 6.00 to 7.00

Need pIC50 of `NC1CCN(c2ncc(Sc3cccc(Cl)c3Cl)c3nncn23)CC1` , thanks. 5.00 to 6.00

Report pIC50 for CC1C[C@@H](N)C2(CCN(c3ncc(Sc4cc(N)nc(Cl)c4Cl)c4nccn34)CC2)C1 (stereo partly shown) please. > 7.00

Any idea what pIC50 was measured for `N[C@@H]1CCCC12CCN(c1ncc(Sc3ccncc3C(F)(F)F)c3nccn13)CC2` ? > 7.00

Please look up its pIC50: `Cn1ccnc1Sc1cnc(N2CCC3(CCC[C@H]3N)CC2)n2cnnc12` 5.00 to 6.00

What measured pIC50 goes with NC1CCCCC12CCN(c1ncc(Sc3cccc(Cl)c3Cl)c3ncnn13)CC2 (stereo not shown) ? 6.00 to 7.00

Given the compound NCC1CCN(c2ncc(Sc3cccc(Cl)c3Cl)c3nncn23)C1 (stereo not shown) , what is its reported pIC50? 6.00 to 7.00

Request the reported pIC50 associated with `N[C@@H]1CCCC12CCN(c1ncc(Sc3ccc(Cl)cc3)c3nncn13)CC2` 5.00 to 6.00

# lookup: pIC50 of `CC1(N)CCN(c2ncc(Sc3ccnc(N)c3Cl)c3nccn23)CC1` 6.00 to 7.00

Reported pIC50, compound `N[C@@H]1CCCC12CCN(c1ncc(Sc3ccncc3Cl)c3ncnn13)CC2` : ____ 5.00 to 6.00

What pIC50 value was documented for this compound, N[C@@H]1CCC2CN(c3ncc(Sc4cccc(Cl)c4Cl)c4nncn34)CC21 (stereo partly shown) ? 5.00 to 6.00

What measured pIC50 goes with `C[C@H]1OCC2(CCN(c3ncc(Sc4cccc(Cl)c4Cl)c4ncnn34)CC2)[C@@H]1N` ? 6.00 to 7.00

Entry `Nc1cc(Sc2cnc(N3CCC4(CC3)COC[C@H]4N)n3ccnc23)c(Cl)c(Cl)n1` : reported pIC50 = ? > 7.00

Using the record for `N[C@@H]1CCCC12CCN(c1ncc(-c3cccc(Cl)c3Cl)c3nccn13)CC2` , report its pIC50. 6.00 to 7.00

# input compound: `N[C@@H]1CCCC12CCN(c1ncc(Sc3cccc4ncsc34)c3nccn13)CC2` ; wanted: its pIC50 6.00 to 7.00

Which pIC50 value belongs to `COC(=O)CCSc1cnc(N2CCC3(CCC[C@H]3N)CC2)n2cnnc12` ? 5.00 to 6.00

Data request, read-out pIC50, for `Cc1nccc(Sc2cnc(N3CCC4(CC3)CO[C@@H](C)[C@H]4N)n3ccnc23)c1Cl` > 7.00
